Molecular target: Peroxisome proliferator-activated receptor gamma (Homo sapiens, UniProt P37231)
Sequence (P37231 whole entry): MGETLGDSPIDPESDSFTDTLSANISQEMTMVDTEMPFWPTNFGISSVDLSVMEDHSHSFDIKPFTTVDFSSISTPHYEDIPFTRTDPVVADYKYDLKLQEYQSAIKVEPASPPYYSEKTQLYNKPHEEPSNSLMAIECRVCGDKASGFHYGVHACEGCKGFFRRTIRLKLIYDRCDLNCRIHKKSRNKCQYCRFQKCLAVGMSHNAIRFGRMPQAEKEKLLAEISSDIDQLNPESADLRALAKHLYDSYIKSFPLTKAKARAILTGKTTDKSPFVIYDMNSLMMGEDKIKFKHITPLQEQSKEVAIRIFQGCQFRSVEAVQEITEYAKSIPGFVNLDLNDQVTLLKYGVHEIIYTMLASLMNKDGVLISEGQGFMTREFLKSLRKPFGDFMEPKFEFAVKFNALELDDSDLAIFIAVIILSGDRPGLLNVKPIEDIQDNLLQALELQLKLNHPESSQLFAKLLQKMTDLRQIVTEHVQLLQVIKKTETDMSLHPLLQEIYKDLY
Items are presented alongside their recorded pKi.
Lab note: report pKi as minus log10 of the concentration in molar units, number only.

| compound | pKi |
| --- | --- |
| CN(CCOc1ccc(CC(Oc2ccccc2)C(=O)O)cc1)c1nc2ccccc2o1 (configuration not stated) | 9.40 |

Pending compound:
# compound CN(CCOc1ccc(CC(Sc2ccccc2)C(=O)O)cc1)c1nc2ccccc2o1 (configuration not stated) ; its pKi = 7.43
